Molecular target: human CD33 Q26A (human, UniProt P20138 18-364)
Sequence (P20138 18-364 Q26A limits assumed): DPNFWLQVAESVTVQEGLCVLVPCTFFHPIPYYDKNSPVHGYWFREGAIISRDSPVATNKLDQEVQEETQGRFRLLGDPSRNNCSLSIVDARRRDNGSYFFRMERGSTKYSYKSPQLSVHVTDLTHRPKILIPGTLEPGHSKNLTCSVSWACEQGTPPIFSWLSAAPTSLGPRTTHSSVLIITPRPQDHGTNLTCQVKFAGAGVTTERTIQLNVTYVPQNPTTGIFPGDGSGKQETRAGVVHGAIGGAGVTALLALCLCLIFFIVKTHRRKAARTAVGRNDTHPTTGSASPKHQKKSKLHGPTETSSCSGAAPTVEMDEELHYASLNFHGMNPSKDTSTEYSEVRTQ
Test: alanine scan, flow cytometry;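 also: HEK293-T cells transiently expressing single-residue alanine mutants of CD33 (alanine swapped to serine), antibody binding read by fluorescence in duplicate, background-subtracted, expressed relative to wild-type CD33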
Overview of recorded Mean % WT Binding for various binders
PARAMETER MEASURED: Mean % WT Binding (% WT)

{"BINDER": "Refmab #2 (antibody, V domains shown, Full-length format is human IgG1 Fc silent (PG-LALA); The alanine scan used IgG or Fab) VH: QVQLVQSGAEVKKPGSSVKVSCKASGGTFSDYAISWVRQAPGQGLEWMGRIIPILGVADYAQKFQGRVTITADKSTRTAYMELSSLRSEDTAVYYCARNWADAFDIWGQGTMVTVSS VL: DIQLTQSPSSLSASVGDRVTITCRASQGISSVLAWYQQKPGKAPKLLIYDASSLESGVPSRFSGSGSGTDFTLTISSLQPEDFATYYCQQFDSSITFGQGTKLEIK", "DATA VALUE": 111}
{"BINDER": "Refmab #3 (antibody, V domains shown, Full-length format is human IgG1 Fc silent (PG-LALA); The alanine scan used IgG or Fab) VH: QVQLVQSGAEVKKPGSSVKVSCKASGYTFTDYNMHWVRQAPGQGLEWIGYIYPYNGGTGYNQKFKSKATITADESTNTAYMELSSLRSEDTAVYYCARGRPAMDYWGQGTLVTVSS VL: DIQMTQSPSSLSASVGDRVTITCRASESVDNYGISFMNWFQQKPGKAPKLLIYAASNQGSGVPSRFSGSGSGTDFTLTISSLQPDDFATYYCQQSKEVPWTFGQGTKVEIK", "DATA VALUE": 124}
{"BINDER": "Refmab #1 (antibody, V domains shown, Full-length format is human IgG1 (Absolute Antibody Ab00283-10.0); The alanine scan used IgG or Fab; also called hP67.6) VH: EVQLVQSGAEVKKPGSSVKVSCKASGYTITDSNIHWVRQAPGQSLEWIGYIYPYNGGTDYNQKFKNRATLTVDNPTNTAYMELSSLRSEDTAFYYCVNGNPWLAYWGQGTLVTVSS VL: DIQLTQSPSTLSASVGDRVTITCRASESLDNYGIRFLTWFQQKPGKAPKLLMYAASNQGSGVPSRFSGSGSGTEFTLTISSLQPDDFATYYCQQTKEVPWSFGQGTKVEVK", "DATA VALUE": 81.4}
{"BINDER": "Refmab #4 (antibody, V domains shown, Full-length format is human IgG1 Fc silent (PG-LALA); The alanine scan used IgG or Fab) VH: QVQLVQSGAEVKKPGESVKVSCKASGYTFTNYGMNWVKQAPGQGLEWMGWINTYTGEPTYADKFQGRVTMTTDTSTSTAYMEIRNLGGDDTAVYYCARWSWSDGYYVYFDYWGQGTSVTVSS VL: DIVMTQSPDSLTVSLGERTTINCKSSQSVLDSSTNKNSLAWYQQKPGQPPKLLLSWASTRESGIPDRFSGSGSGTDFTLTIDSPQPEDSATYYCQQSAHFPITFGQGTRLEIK", "DATA VALUE": 63.1}
